assay: NCI Yeast Anticancer Drug Screen. Data for the mlh1 rad18 strain (AID 175); conditions: S. cerevisiae mlh1 rad18 strain growth inhibition; at 50.0 µM; hits give high values
The panel holds about 79,000 compounds, 15% with a hit somewhere; the sample as a whole holds those more often.
MEASURE: growth inhibition (%)
A number alone suffices; assume %.

CCCCCCCCCCCCCCN: 91.2

Determine from records and report growth inhibition for `CCCN=Cc1cc(Cc2ccc(O)c(C=NCCC)c2)ccc1O`
89.3

Determine from records and report growth inhibition for O=C1C2=C(c3ccccc31)C(c1ccccc1)N1C(=O)CSC1=N2 (centres undefined)
51

Determine from records and report growth inhibition for `COC(=O)/C(C#N)=C\NC(=S)C(N)=S`
89.3
